- Assay target: SARS-CoV-2 spike receptor-binding domain (RBD) (SARS-CoV-2, UniProt P0DTC2 319-541)
- Assay method text: indirect ELISA on coated RBD ('ELISA affinity')
Measured parameter: pIC50
On this scale, pIC50 is minus log10 of a concentration expressed in M (mol/L).

# Binder, pIC50
data = [
    ("Nb102 (VHH) VHH: QVQLVESGGGLVQAGGSLRLSCAASGRTFSNSHMGWFRQAPGKEREFVAVISRSGGSTLYADSVKGRFTISRDNAKNTVYLQMNSLKPEDTAVYYCAASRTAGLTSNRSLYDYWGRGTQVTVSS", 7.55),
    ("Nb26 (VHH) VHH: HVQLVESGGGLVQAGGSLRLTCAASGRTFSISTMDMGWFRQAPGKEREFVAADAWNDGRTYYADSVKGRFTISRDNAKNTLYLQMNSLKPEDTAVYYCTADTYSNYKKDDSWGYWGQGTQVTVSS", 9.04),
    ("Nb6 (VHH) VHH: HVQLVESGGGLVQAGGSLRLSCAASGRTFSTHATGWFRQAPGKEREFLATSVWLDDISRDSTYYAESVKGRFSISRDNAKDTVYLQMNSLKPEDTAVYYCAVKQRVGPGIMSAPTYDYWGQGTQVTVSS", 9.24),
]

Input: Please give the measured pIC50 for this binder: Nb78 (VHH) VHH: QVQLVESGGGLVQAGGSLRLSCAISGASANRVGWFRRAPGKEREFVAAIGASGGMTNYLDSVKGRFTISRDNAKNTVYLQMNSLKPQDTAVYYCAARNIETAEYTYWGQGTQVTVSS
Output: 9.21
